Assay: pH-metric determination of pKa values (SiriusT3)
Assay type: physicochemical
Details: methanol/ISA water cosolvent mixtures (0.15 M KCl), MeOH:ISA water cosolvent, extrapolated to 0% cosolvent, 25 °C, n=4; read-out: pKa (basic), amino group (propan-1-amine)
measured.metric: pKa
Please reply with the number alone, leaving off any unit.

Retrieve pKa measured for Cn1cc2c3nc(ncc31)Nc1cnn(c1)CCCNCCOc1ccc-2cc1 [Compound 5a] and print it. 8.2

----------
Catalogue of molecules with associated Papp A→B at 2 h, 10 µM
Assay: Caco-2 membrane permeability assay
Assay type: in vitro ADME
Conditions: human, Caco-2, pH 7.4, Caco-2 Papp AB with Pgp inhibitor
Give just the numeric value; nm/s need not be written.

{"columns": ["compound.structure.string", "Papp A→B at 2 h, 10 µM, nm/s"],
 "data": [
  ["c1cc2nc(n1)Nc1cnn(c1)CCCNCCOc1ccc(cc1)N2", 87]
]}

Retrieve Papp A→B at 2 h, 10 µM measured for "Cn1cc2c3nc(ncc31)Nc1cnn(c1)CCCNCCOc1ccc-2cc1" and print it. 199

----------
Experiment: Microsomes stability (clearance in human microsomes)
Type: in vitro ADME
Settings: microsomes, pH 7.4, 0.8 mg protein/mL, 1 mM NADPH, 37 °C, read-out: CLint h mic (clearance in human microsomes)
Catalogue of molecules with associated microsomal CLint at 1 h, 1 µM

{"columns": ["compound.structure.string", "measured.metric", "data.value"],
 "data": [
  ["Cn1cc2c3nc(ncc31)Nc1cnn(c1)CCCNCCOc1ccc-2cc1", "microsomal CLint at 1 h, 1 µM", "80.5 µL/min/mg"]
]}

Next, consider the following molecule.
Retrieve microsomal CLint at 1 h, 1 µM measured for "c1cc2nc(n1)Nc1cnn(c1)CCCNCCOc1ccc(cc1)N2" and print it. 22.1 µL/min/mg

----------
Assay: log k'80 PLRP-S chromatographic descriptor
Type: physicochemical
Conditions: surrogate of log Dtol
Catalogue of compounds with associated logk'80 PLRP-S
Please reply with the number alone, leaving off any unit.

Previously resolved entries follow.
{"columns": ["compound.structure.string", "logk'80 PLRP-S"],
 "data": [
  ["O=C1COc2ccc(cc2)Nc2ccnc(n2)Nc2cnn(c2)CCCN1", -0.85],
  ["Cc1ccc(C(=O)Nc2cccc(C(F)(F)F)c2)cc1-c1cc2nc(Nc3cnn(C)c3)ncc2[nH]1", -0.3],
  ["Cn1cc2c3nc(ncc31)Nc1cnn(c1)CCCNC(=O)COc1ccc-2cc1", -0.68],
  ["c1cc2nc(n1)Nc1cnn(c1)CCCNCCOc1ccc(cc1)N2", -0.93]
]}

Next, consider the following compound.
Retrieve logk'80 PLRP-S measured for "Cn1cc2c3nc(ncc31)Nc1cnn(c1)CCCNCCOc1ccc-2cc1" and print it. -0.65

----------
Experiment: MDCK-WT permeability assay
Details: dog, MDCK, pH 7.4
measured.metric: Papp A→B at 1 h, 10 µM (×10⁻⁶ cm/s)
Give just the numeric value; ×10⁻⁶ cm/s need not be written.

{"columns": ["compound.structure.string", "measurement.unit", "data.value"],
 "data": [
  ["Cn1cc2c3nc(ncc31)Nc1cnn(c1)CCCNC(=O)COc1ccc-2cc1", "×10⁻⁶ cm/s", 21]
]}

Next, consider the following compound.
Retrieve Papp A→B at 1 h, 10 µM measured for "O=C1COc2ccc(cc2)Nc2ccnc(n2)Nc2cnn(c2)CCCN1" and print it. 4.8
